Below, each entry is listed with its recorded cell viability.
Test system: HEL
Assay: cell viability (% survival relative to DMSO control, bortezomib = 0%); higher = less cytotoxic
Conditions: 100 nM; 72 h
quantityMeasured: cell viability (%)

O=c1c2ccccc2[se]n1-c1ccccc1
106
O=C1Oc2ccccc2C(=O)C1CC1C(=O)Oc2ccccc2C1=O (centres undefined)
92
O=C(O)c1nn(Cc2ccc(Cl)cc2Cl)c2ccccc12
120
Cc1ccc(S(=O)(=O)NC2c3ccccc3Oc3ccccc32)cc1
103
C[C@]12O[C@H](C[C@]1(O)CO)n1c3ccccc3c3c4c(c5c6ccccc6n2c5c31)CNC4=O
33.2
COc1c(C)c2c(c(O)c1C/C=C(\C)CCC(=O)O)C(=O)OC2
104
[N-]=[N+]=CC(=O)CC[C@H](N)C(=O)O
98.5
CN(C/C=C/C#CC(C)(C)C)Cc1cccc2ccccc12
110
Nc1ccn([C@@H]2O[C@H](CO)[C@@H](O)[C@@H]2O)c(=O)n1
19.6

---

Below, each entry is listed with its recorded cell viability.
Test system: SHI-1
Assay: cell viability (% survival relative to DMSO control, bortezomib = 0%); higher = less cytotoxic
Conditions: 10000 nM; 72 h
quantityMeasured: cell viability

Cc1ccc(S(=O)(=O)NC2c3ccccc3Oc3ccccc32)cc1
85.5%
C1CCc2nnc(C34CC5CC(CC(C5)C3)C4)n2CC1
118%
CN(C)c1nc(O)c2[nH]cnc2n1 [2-Dimethylamino-6-hydroxypurine]
98.2%
CN(C/C=C/C#CC(C)(C)C)Cc1cccc2ccccc12
98.9%
Cc1c(-c2ccccc2)oc2c(C(=O)OCCN3CCCCC3)cccc2c1=O.Cl [Flavoxate]
101%
C#Cc1cnc(O)nc1O
102%

---

System: myeloid leukemia patient primary cells Pat.7
Assay: area under dose-response curve (viability, 1 nM-10 uM) (fraction (0-1)); higher = more sensitive
Settings: 72 h
quantityMeasured: area under dose-response curve

CC(Cc1ccc(O)c(O)c1)C(C)Cc1ccc(O)c(O)c1 (configuration not stated)
0.294
Nc1ccn([C@@H]2O[C@H](CO)[C@@H](O)[C@@H]2O)c(=O)n1
0.418
C[C@]12O[C@H](C[C@]1(O)CO)n1c3ccccc3c3c4c(c5c6ccccc6n2c5c31)CNC4=O
0.191
CCOC(=O)N1c2ccc(C(F)(F)F)cc2[C@@H](N(Cc2cc(C(F)(F)F)cc(C(F)(F)F)c2)C(=O)OC)C[C@H]1CC
0.197
Clc1ccc(COC(Cn2ccnc2)c2ccc(Cl)cc2Cl)cc1 (configuration not stated)
0.202

---

Below, each entry is listed with its recorded cell viability.
Test system: LAMA-84
Assay: cell viability (% survival relative to DMSO control, bortezomib = 0%); higher = less cytotoxic
Conditions: 100 nM; 72 h
quantityMeasured: cell viability (%)

O=C(O)c1nn(Cc2ccc(Cl)cc2Cl)c2ccccc12 [Lonidamine]
108
Clc1ccc2c(c1Cl)CNCC2
93.7
C[C@]12CC[C@H](O)CC1=CC[C@@H]1[C@@H]2CC[C@]2(C)C(c3cccnc3)=CC[C@@H]12 [Abiraterone]
94.1
CCN(CC)CCN(Cc1ccc(-c2ccc(C(F)(F)F)cc2)cc1)C(=O)Cn1c(SCc2ccc(F)cc2)nc(=O)c2c1CCC2 [Darapladib]
99.7
CN(C/C=C/C#CC(C)(C)C)Cc1cccc2ccccc12 [Terbinafine]
110
